Assay: self-splicing fitness, log relative to wild type (ln ratio); higher = more splicing; Tetrahymena group I intron in knt gene, E. coli kanamycin selection, DiMSum; sequences stand for … in CUCUCU…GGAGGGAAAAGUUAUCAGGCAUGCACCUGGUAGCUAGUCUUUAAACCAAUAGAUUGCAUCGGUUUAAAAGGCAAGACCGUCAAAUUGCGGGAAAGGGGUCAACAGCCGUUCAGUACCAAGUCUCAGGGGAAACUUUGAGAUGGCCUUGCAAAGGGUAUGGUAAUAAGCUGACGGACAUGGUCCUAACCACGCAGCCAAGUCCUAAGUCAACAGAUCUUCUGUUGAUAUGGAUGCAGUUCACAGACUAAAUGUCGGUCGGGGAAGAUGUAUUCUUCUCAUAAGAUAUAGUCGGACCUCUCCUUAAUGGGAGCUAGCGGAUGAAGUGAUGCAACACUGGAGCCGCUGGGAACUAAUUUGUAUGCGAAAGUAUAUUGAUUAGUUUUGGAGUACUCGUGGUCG;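 also: selection with 25 µg/mL kanamycin versus none on LB agar overnight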
Settings: 30 °C
Readout Type: self-splicing fitness (ln)
A bare number is all that is needed in reply.

Please review the entries below; each comes with its answer.
Sequence Record	Readout Type	Measured Value
CUGUAGCAAUAUUACGAUCA	self-splicing fitness (ln)	-2.29
UCCAAGCAAUAUUACGUUCU	self-splicing fitness (ln)	-2.62
ACCAAGCAAUAUUACGCAAU	self-splicing fitness (ln)	-2.01
AGCCAGCAAUAUUACGUAUU	self-splicing fitness (ln)	-3.72
UUCCAGCAAUAUUACGGGAU	self-splicing fitness (ln)	-3.25
CAAUAGCAAUAUUACGAAAA	self-splicing fitness (ln)	-2.39
CCUUAGCAAUAUUACGUUAA	self-splicing fitness (ln)	-3.13
CCGCAGCAAUAUUACGAGGA	self-splicing fitness (ln)	-3.51
AUGGAGCAAUAUUACGUGAG	self-splicing fitness (ln)	-2.31
UCAUAGCAAUAUUACGUAGC	self-splicing fitness (ln)	-4.12

Provide only the value of recorded self-splicing fitness (ln) for `UCGAAGCAAUAUUACGUGUA`
-2.47

Provide only the value of recorded self-splicing fitness (ln) for `CUUAAGCAAUAUUACGAGUG`
-1.39

Provide only the value of recorded self-splicing fitness (ln) for `UUACAGCAAUAUUACGAAUC`
-3.27

Provide only the value of recorded self-splicing fitness (ln) for `ACAAAGCAAUAUUACGAGUU`
-3.3

Provide only the value of recorded self-splicing fitness (ln) for `GCGUAGCAAUAUUACGCAUC`
-3.37

Provide only the value of recorded self-splicing fitness (ln) for `GGAUAGCAAUAUUACGCAUG`
-0.819

Provide only the value of recorded self-splicing fitness (ln) for `ACUAAGCAAUAUUACGGUUC`
-3.92

Provide only the value of recorded self-splicing fitness (ln) for `CCGGAGCAAUAUUACGUCGA`
-3.12

====

Below, each entry is listed alongside its reported self-splicing fitness (ln).
Assay: self-splicing fitness, log relative to wild type (ln ratio); higher = more splicing; Tetrahymena group I intron in knt gene, E. coli kanamycin selection, DiMSum; sequences stand for … in CUCUCU…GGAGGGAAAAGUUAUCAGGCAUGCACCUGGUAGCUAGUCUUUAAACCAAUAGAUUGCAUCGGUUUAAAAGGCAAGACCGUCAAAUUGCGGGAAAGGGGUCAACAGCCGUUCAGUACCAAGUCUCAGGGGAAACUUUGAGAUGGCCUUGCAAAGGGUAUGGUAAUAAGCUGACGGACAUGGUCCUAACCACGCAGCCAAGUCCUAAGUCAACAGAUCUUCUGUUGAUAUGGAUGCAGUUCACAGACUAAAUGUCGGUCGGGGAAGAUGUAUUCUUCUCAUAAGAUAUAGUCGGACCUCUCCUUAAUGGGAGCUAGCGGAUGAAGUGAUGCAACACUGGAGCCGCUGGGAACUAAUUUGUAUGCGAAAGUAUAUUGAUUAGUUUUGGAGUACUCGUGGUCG
Conditions: 30 °C
A bare number is all that is needed in reply.

Please review the entries below; each comes with its answer.
Sequence Record	Readout Type	Measured Value
GUCCAGCAAUAUUACGCUAU	self-splicing fitness (ln)	-0.823
GUAUAGCAAUAUUACGACUG	self-splicing fitness (ln)	-2.88
UUGAAGCAAUAUUACGGGCA	self-splicing fitness (ln)	0.114
CGGCAGCAAUAUUACGCGCA	self-splicing fitness (ln)	-0.939
ACUAAGCAAUAUUACGGCUU	self-splicing fitness (ln)	-2.2

Provide only the value of recorded self-splicing fitness (ln) for `ACAUAGCAAUAUUACGGAGA`
-3.28

====

Below, each entry is listed alongside its reported self-splicing fitness (ln).
Experiment: self-splicing fitness, log relative to wild type (ln ratio); higher = more splicing; Tetrahymena group I intron in knt gene, E. coli kanamycin selection, DiMSum; sequences stand for … in CUCUCU…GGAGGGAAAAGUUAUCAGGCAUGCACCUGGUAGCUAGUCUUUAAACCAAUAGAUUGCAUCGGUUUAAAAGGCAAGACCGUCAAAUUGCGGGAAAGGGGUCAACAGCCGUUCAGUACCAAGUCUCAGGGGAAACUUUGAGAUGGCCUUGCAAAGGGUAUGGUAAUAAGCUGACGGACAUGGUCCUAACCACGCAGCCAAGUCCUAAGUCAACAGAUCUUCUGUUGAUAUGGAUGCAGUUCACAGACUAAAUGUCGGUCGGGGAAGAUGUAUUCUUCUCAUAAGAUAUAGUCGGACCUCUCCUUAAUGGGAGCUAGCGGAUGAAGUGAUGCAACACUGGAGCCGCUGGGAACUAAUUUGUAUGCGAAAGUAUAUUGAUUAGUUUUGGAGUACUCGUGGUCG
Conditions: 30 °C

Provide only the value of recorded self-splicing fitness (ln) for `UUCGAGCAAUAUUACGCCGG`
-1.98

Provide only the value of recorded self-splicing fitness (ln) for `CUGUAGCAAUAUUACGGGGU`
-2.96

Provide only the value of recorded self-splicing fitness (ln) for `CACCAGCAAUAUUACGGCCG`
0.194

Provide only the value of recorded self-splicing fitness (ln) for `CAGCAGCAAUAUUACGUCUU`
-0.473

Provide only the value of recorded self-splicing fitness (ln) for `CAGCAGCAAUAUUACGUACG`
-0.121

Provide only the value of recorded self-splicing fitness (ln) for `UGAAAGCAAUAUUACGUCAA`
-0.68

Provide only the value of recorded self-splicing fitness (ln) for `GGUAAGCAAUAUUACGAGUC`
-2.59

====

Test: self-splicing fitness, log relative to wild type (ln ratio); higher = more splicing; Tetrahymena group I intron in knt gene, E. coli kanamycin selection, DiMSum; sequences stand for … in CUCUCU…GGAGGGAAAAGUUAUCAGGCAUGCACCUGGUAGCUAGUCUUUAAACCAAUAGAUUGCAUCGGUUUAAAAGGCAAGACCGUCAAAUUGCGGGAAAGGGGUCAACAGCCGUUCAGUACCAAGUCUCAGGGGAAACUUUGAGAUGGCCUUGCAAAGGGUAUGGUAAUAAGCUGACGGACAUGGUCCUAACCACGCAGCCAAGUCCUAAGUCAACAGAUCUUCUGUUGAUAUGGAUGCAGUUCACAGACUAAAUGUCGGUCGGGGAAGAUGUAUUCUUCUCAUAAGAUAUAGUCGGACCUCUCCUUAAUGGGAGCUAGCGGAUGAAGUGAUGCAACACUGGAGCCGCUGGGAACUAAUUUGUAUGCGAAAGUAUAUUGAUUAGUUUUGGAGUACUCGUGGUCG
Settings: 30 °C
Readout Type: self-splicing fitness (ln)
A bare number is all that is needed in reply.

Sequence Record	self-splicing fitness (ln)
AUACAGCAAUAUUACGUUGA	-2.53

Provide only the value of recorded self-splicing fitness (ln) for `AGUCAGCAAUAUUACGUGAA`
-1.5

Provide only the value of recorded self-splicing fitness (ln) for `UGACAGCAAUAUUACGCCAG`
-1.56

====

Below, each entry is listed alongside its reported self-splicing fitness (ln).
Assay: self-splicing fitness, log relative to wild type (ln ratio); higher = more splicing; Tetrahymena group I intron in knt gene, E. coli kanamycin selection, DiMSum; sequences stand for … in CUCUCU…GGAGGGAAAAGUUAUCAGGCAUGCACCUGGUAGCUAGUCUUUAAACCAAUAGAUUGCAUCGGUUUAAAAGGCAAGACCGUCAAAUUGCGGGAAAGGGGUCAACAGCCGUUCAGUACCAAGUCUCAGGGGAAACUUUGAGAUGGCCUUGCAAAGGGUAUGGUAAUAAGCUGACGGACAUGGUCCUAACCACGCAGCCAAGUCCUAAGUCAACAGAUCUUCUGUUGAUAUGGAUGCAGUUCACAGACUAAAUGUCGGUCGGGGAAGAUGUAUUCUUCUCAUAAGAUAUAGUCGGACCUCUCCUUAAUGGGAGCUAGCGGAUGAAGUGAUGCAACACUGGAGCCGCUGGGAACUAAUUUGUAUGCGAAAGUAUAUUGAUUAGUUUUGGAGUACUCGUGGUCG
Conditions: 30 °C

Sequence Record	Measured Value
CUACAGCAAUAUUACGGUUA	-0.432
GAACAGCAAUAUUACGACCU	-0.509
CCAAAGCAAUAUUACGUUUU	-3.91
CGUGAGCAAUAUUACGUAUC	-1.84
GAUCAGCAAUAUUACGGGCU	-1.98

Alright, here's another sequence for you.
Provide only the value of recorded self-splicing fitness (ln) for `AACGAGCAAUAUUACGAUUA`
-1.89
